# Assay: in vitro
# Parameters: Viability of infected HeLa host cells, resazurin conversion, bulk resorufin fluorescence relative to DMSO
# Condition Notes: human, hela cells; bulk resorufin, mean of 3
Recorded viability at 28.5 h, 1 µM values for a group of compounds are listed next.
Give the quantity in %, number only.

{"columns": ["Compound", "Number"],
 "data": [
  ["O=C(Nc1ccccc1N1CCCNCC1)c1ccc2ccccc2c1 [c29e]", 115],
  ["COCCNc1nc2c(c(N3CCCCCC3)n1)CCNCC2 [c18e]", 102],
  ["COc1ccc(C2CC(=O)C=C(Nc3cc(Cl)ccc3O)C2)cc1 (centres unmarked) [c24e]", 85.7],
  ["COCC(=O)N[C@H]1C[C@H]2C(=O)Nc3ccc(/C=C/c4ccccc4)cc3C(=O)N2C1 [c25e]", 106],
  ["O=C(c1ccc(-c2ccc(F)cc2)o1)N1C[C@H]2CC[C@](O)(c3ccc(F)cc3)[C@H]2C1", 93.7],
  ["Cc1cccc(OCC(C)NC(=O)NCCc2cnn(C)c2)c1 (centres unmarked) [c47e]", 106]
]}

[ask] Please report the recorded viability at 28.5 h, 1 µM for Cc1cccc(-c2ccc(CC3(C(N)=O)CCN(C(=O)CCc4ccccc4)CC3)cc2)c1 [c38e] .
[reply] 103

[ask] Return reported viability at 28.5 h, 1 µM; argument: CCOc1ccc2nc(NC(=N)N)nc(C)c2c1 [c37e]
[reply] 87.7
